Provenance of the data: patent US7820811B2

# TESTED ON: UniProt P30543
# TEST NAME: EC50 at the adenosine A2A receptor
READOUT KIND: EC50

QUERY: What measured EC50 is associated with `COc1nc(N)c2ncn([C@@H]3O[C@H](CO)[C@@H](O)[C@H]3O)c2n1` on UniProt P30543?
RESULT: ~1000 nM
